Test summary: Stability of peptides to proteases in whole cell extract (WCE), HPLC
Type: in vitro ADME, Kentucky 14 tobacco
Stated conditions: other tissue homogenate, pH 7.5, 15% WCE; peptide alone; read-out: % Peptide Remaining Intact after 1 Hr.

[
  {
    "Substance": "H-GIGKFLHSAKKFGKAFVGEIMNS-OH [Magainin 2, reference compound]",
    "remaining at 1 h, 1 mg/mL (%)": 10.9
  }
]

----------
Target or system: Chymotrypsin (Bos taurus)
Construct: purchased
Test summary: Inhibition of protease digestion of fluorescent labeled casein: chymotrypsin
Assay type: biochemical
Stated conditions: peptide 5 μg/mL; no-peptide control 375
No end group written: not given here.
The entries below come with measured Chymotrypsin Activity (Fluorescence Units) Mean values attached.
Quantity: Chymotrypsin Activity (Fluorescence Units) Mean

[
  {
    "Substance": "Ser Arg Arg Trp Pro Trp Trp Pro Trp Lys Trp Pro Leu Ile (SRRWPWWPWKWPLI-OH) [SEQ. ID NO. 5, analog of Rev4 in which an extra Ser was added to the N-terminus]",
    "Observed": 162
  },
  {
    "Substance": "Ile Leu Lys Gly Phe Pro Gly Phe Pro Arg Arg Lys (ILKGFPGFPRRK-NH2) [SEQ. ID NO. 8, derivative of indolicidin in which Trp residues were replaced by Phe and a Pro residue was deleted]",
    "Observed": 385
  },
  {
    "Substance": "RRWPWWPWKWPLIGGGYDPAPPPPPP [SEQ. ID NO. 6, Rev4 with a C-terminal extension of 13 amino acids]",
    "Observed": 212
  },
  {
    "Substance": "Ile Leu Pro Phe Lys Phe Pro Phe Phe Pro Phe Arg Arg (ILPFKFPFFPFRR-NH2) [SEQ. ID NO. 7, indolicidin in which the Trp residues were replaced with Phe]",
    "Observed": 386
  }
]

----------
The entries below come with measured % Control values attached.
Test system: Peronospora tabacina
Test summary: Tobacco blue mold spore germination assay
Assay type: cell-based
Stated conditions: germination as % of no-peptide control; 2 μg/mL
No end group written: not given here.

[
  {
    "Substance": "Ile Leu Lys Gly Phe Pro Gly Phe Pro Arg Arg Lys (ILKGFPGFPRRK-NH2) [SEQ. ID NO. 8, derivative of indolicidin in which Trp residues were replaced by Phe and a Pro residue was deleted]",
    "Target or system": "Peronospora tabacina",
    "% Control, %": 23
  },
  {
    "Substance": "Ser Arg Arg Trp Pro Trp Trp Pro Trp Lys Trp Pro Leu Ile (SRRWPWWPWKWPLI-OH) [SEQ. ID NO. 5, analog of Rev4 in which an extra Ser was added to the N-terminus]",
    "Target or system": "Peronospora tabacina",
    "% Control, %": 9
  },
  {
    "Substance": "RRWPWWPWKWPLIGGGYDPAPPPPPP [SEQ. ID NO. 6, Rev4 with a C-terminal extension of 13 amino acids]",
    "Target or system": "Peronospora tabacina",
    "% Control, %": 7
  },
  {
    "Substance": "Ile Leu Pro Phe Lys Phe Pro Phe Phe Pro Phe Arg Arg (ILPFKFPFFPFRR-NH2) [SEQ. ID NO. 7, indolicidin in which the Trp residues were replaced with Phe]",
    "Target or system": "Peronospora tabacina",
    "% Control, %": 11
  }
]

----------
Target or system: Chymotrypsin (Bos taurus)
Construct: purchased
Test summary: Inhibition of protease digestion of fluorescent labeled casein: chymotrypsin
Type: biochemical
Stated conditions: peptide 20 μg/mL; no-peptide control 375
No end group written: not given here.
The entries below come with measured Chymotrypsin Activity (Fluorescence Units) Mean values attached.
Quantity: Chymotrypsin Activity (Fluorescence Units) Mean

[
  {
    "Substance": "Ser Arg Arg Trp Pro Trp Trp Pro Trp Lys Trp Pro Leu Ile (SRRWPWWPWKWPLI-OH) [SEQ. ID NO. 5, analog of Rev4 in which an extra Ser was added to the N-terminus]",
    "Target or system": "Chymotrypsin (Bos taurus)",
    "Observed": 44
  },
  {
    "Substance": "RRWPWWPWKWPLIGGGYDPAPPPPPP [SEQ. ID NO. 6, Rev4 with a C-terminal extension of 13 amino acids]",
    "Target or system": "Chymotrypsin (Bos taurus)",
    "Observed": 45
  },
  {
    "Substance": "Ile Leu Pro Phe Lys Phe Pro Phe Phe Pro Phe Arg Arg (ILPFKFPFFPFRR-NH2) [SEQ. ID NO. 7, indolicidin in which the Trp residues were replaced with Phe]",
    "Target or system": "Chymotrypsin (Bos taurus)",
    "Observed": 385
  },
  {
    "Substance": "Ile Leu Lys Gly Phe Pro Gly Phe Pro Arg Arg Lys (ILKGFPGFPRRK-NH2) [SEQ. ID NO. 8, derivative of indolicidin in which Trp residues were replaced by Phe and a Pro residue was deleted]",
    "Target or system": "Chymotrypsin (Bos taurus)",
    "Observed": 321
  }
]
